FYI, the data here is from the supplement of paper PMC10567573.

B1: MCOLN1 (parent)
chain: EEEDLRRRLKYFFMSPCDKFRAKG

variants of: B1; assay: protein stability index of a GFP-peptide fusion (GPS, HEK-293T) (PSI 1-6); higher = more stable; conditions: c terminus: a fixed tail appended;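 note: lentivirally expressed fusions sorted by FACS into six bins by GFP to DsRed ratio, PSI derived from sequencing read proportions per bin multiplied by bin number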
Measured Endpoint: protein stability index
Answers are plain numbers.

Example entries begin here.
NEEDLRRRLKYFFMSPCDKFRAKG [E1N] = 1.51
EEEDLRRALKYFFMSPCDKFRAKG [R8A] = 2
EEHDLRRRLKYFFMSPCDKFRAKG [E3H] = 2.33

For each of the variants below, state protein stability index.
1. EEEDLRRRLKYFRMSPCDKFRAKG [F13R]
2. EEEDLRRRVKYFFMSPCDKFRAKG [L9V]
3. EEEDLRRRLKYFFMIPCDKFRAKG [S15I]
4. IEEDLRRRLKYFFMSPCDKFRAKG [E1I]
5. EEEDLRRRLKYFFGSPCDKFRAKG [M14G]
6. EEELLRRRLKYFFMSPCDKFRAKG [D4L]

A.
1. 3.54
2. 3.15
3. 1.82
4. 2.19
5. 3.56
6. 2.13

For each of the variants below, state protein stability index.
1. EEEKLRRRLKYFFMSPCDKFRAKG [D4K]
2. EEEDLRRRLKYFFMSPCDKFRARG [K23R]
3. EEEDLRRRLKYFFMSPCDEFRAKG [K19E]
4. EEEDLRRRLKFFFMSPCDKFRAKG [Y11F]
5. EEEYLRRRLKYFFMSPCDKFRAKG [D4Y]
6. EEEDLRRRWKYFFMSPCDKFRAKG [L9W]

A.
[1.83, 2.65, 2.94, 2.88, 2.18, 2.32]
